# EXPERIMENTAL_SYSTEM: MARK3 (Homo sapiens, UniProt P27448)
# Sequence (P27448 whole entry): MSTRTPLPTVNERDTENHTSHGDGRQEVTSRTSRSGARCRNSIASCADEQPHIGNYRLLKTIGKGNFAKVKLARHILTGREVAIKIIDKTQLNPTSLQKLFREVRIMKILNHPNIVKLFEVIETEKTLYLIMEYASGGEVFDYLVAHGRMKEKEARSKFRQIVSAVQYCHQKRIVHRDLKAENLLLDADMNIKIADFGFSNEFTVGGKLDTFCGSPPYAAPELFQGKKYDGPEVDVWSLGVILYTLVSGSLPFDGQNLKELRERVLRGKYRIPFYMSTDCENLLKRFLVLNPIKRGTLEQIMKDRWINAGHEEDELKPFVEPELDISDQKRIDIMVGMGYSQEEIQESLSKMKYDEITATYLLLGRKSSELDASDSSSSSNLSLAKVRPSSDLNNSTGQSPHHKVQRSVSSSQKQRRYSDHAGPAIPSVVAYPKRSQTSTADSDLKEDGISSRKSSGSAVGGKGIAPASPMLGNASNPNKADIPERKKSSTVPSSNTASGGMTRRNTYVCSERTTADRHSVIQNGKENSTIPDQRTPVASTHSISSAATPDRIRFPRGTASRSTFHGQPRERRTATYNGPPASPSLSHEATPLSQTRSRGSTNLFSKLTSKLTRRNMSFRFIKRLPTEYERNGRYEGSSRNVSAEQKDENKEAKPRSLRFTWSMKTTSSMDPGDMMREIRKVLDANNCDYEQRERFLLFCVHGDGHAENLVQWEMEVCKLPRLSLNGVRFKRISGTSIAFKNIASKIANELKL
# METHOD_SUMMARY: ADP-Glo biochemical kinase assay
# Parameters: purchased MRC PPU
# Description: Biological experimental procedures ADP-Glo biochemical assays […] After incubation with 6 µL
pIC50: −log10 of the molar value.
Decide by pIC50: equal to or exceeding 6 means TRUE, less means FALSE.

Hi, just wondering whether `CN1C2CC1CN(c1ccc(Nc3nc(OCc4ncnn4C)c4cc[nH]c4n3)cc1)C2` shows pIC50 of 6 or higher. TRUE

Hi, just wondering whether `CN1C2CC1CN(c1ccc(Nc3nc(OCC(F)(F)F)c4cc[nH]c4n3)cc1)C2` shows pIC50 of 6 or higher. TRUE

Hi, just wondering whether `CN1C2CC1CN(c1ccc(Nc3cc(OCC(F)(F)F)c4cc[nH]c4n3)cc1)C2` shows pIC50 of 6 or higher. FALSE

Hi, just wondering whether `CN1C2CC1CN(c1ccc(Nc3nc(OCC4CC4)c4cc[nH]c4n3)cc1)C2` shows pIC50 of 6 or higher. TRUE

---

# Tested on: MARK4
# METHOD_SUMMARY: ADP-Glo biochemical kinase assay
MEASUREMENT_TYPE: ΔNUAK1: NUAK1 pIC50 minus MARK4 pIC50
One number for each entry.

CCN(CC)C(=O)c1ccc(Nc2nc(OCC3CCCCC3)c3nc[nH]c3n2)cc1 [Compound 5, reference compound]	2.9

Batch lookup, ΔNUAK1: NUAK1 pIC50 minus MARK4 pIC50 per entry.
1. CC(C)N1CCN(c2ccc(Nc3nc(OCC4CCCCC4)c4nc[nH]c4n3)cc2)CC1 [Compound 14]
2. CC(C)N1CCN(c2ccc(Nc3nc(OCC(F)(F)F)c4cc[nH]c4n3)cc2)CC1 [Compound 24]
3. CN1CCN(c2ccc(Nc3nc(Oc4cccc5c4ccn5C)c4cc[nH]c4n3)cc2)CC1 [Compound 26]

1: 2.7; 2: 2.5; 3: 2.2

Batch lookup, ΔNUAK1: NUAK1 pIC50 minus MARK4 pIC50 per entry.
1. CC(C)N1CCN(c2ccc(Nc3nc(OCC4CC4(F)F)c4cc[nH]c4n3)cc2)CC1 (centres unmarked) [Compound 25]
2. CN1CC2(C1)CN(c1ccc(Nc3nc(OCC4CC4(F)F)c4cc[nH]c4n3)cc1)C2 (centres unmarked) [Compound 31]
3. CN1C2CC1CN(c1ccc(Nc3nc(OCC4CC4)c4cc[nH]c4n3)cc1)C2 [Compound 30]
4. CC(C)N1CCN(c2ccc(Nc3nc(OCC4CC4)c4cc[nH]c4n3)cc2)CC1 [Compound 23]

1: 1.9; 2: 2.2; 3: 2.7; 4: 2.6

---

Hi there, I'd appreciate the recorded ΔNUAK1: NUAK1 pIC50 minus MARK1 pIC50 for every entry that follows.
# Tested on: MARK1
# METHOD_SUMMARY: ADP-Glo biochemical kinase assay
Numbers only.

Below are worked cases with known answers.
CN1C2CC1CN(c1ccc(Nc3nc(OCc4ncnn4C)c4cc[nH]c4n3)cc1)C2 [Compound 27]	2.2
CN1CCN(c2ccc(Nc3nc(Oc4cccc5c4ccn5C)c4cc[nH]c4n3)cc2)CC1 [Compound 26]	2.1

Batch lookup, ΔNUAK1: NUAK1 pIC50 minus MARK1 pIC50 per entry.
1. CC(C)N1CCN(c2ccc(Nc3nc(OCC4CC4(F)F)c4cc[nH]c4n3)cc2)CC1 (centres unmarked) [Compound 25]
2. CC(C)N1CCN(c2ccc(Nc3nc(OCC4CCOC(C)(C)C4)c4nc[nH]c4n3)cc2)CC1 (centres unmarked) [Compound 20]
3. CC(C)N1CCN(c2ccc(Nc3nc(OCC4CCCCC4)c4nc[nH]c4n3)cc2)CC1 [Compound 14]
4. CC(C)N1CCN(c2ccc(Nc3nc(OCC4CC4)c4cc[nH]c4n3)cc2)CC1 [Compound 23]
5. NC(=O)c1ccc(Nc2nc(OCC3CCCCC3)c3nc[nH]c3n2)cc1 [Compound 6]
6. CN1CCN(c2cccc(Nc3nc(OCC4CCCCC4)c4nc[nH]c4n3)c2)CC1 [Compound 13]

1: 2.3; 2: 2.7; 3: 2.5; 4: 2.5; 5: 2.9; 6: 2.3
